Where do the numbers come from? From patent US5629406A.

measurement target: HIV pol protease (Human immunodeficiency virus type 1 group M subtype B, UniProt P03366)
protocol description: Assay of the inhibition of HIV pol protease (synthetic substrate TE-2, HPLC of TE-3)
assay setup: 1 mM or 1.5 mM substrate TE-2, pH 6.0, 30 minutes at 37° C.; calculated by Michaelis-Menten
measured parameter: pKi
Quick note: pKi values are minus log10 of concentrations in mol/L.

Fill in the blank: the reported pKi of CC(C)(C)NC(=O)[C@@H]1C[C@@H]2CCCC[C@@H]2CN1C[C@@H](O)[C@H](Cc1ccccc1)NC(=O)[C@H](CC(N)=O)NC(=O)c1ccc2ccccc2n1 [Ro31-8959, reference compound] is ____.
7.24
